Reported values of melting point for individual entries

molecule: Cc1nn(-c2cc(Oc3ccc(N)cc3Cl)c(Cl)cc2Cl)c(=O)n1C(F)F
melting point: 161 to 162 °C

molecule: CCC1(CCOC2CCCCO2)C(=O)NNC1=O (stereo unspecified)
melting point: 188 to 191 °C

molecule: O=C(Nc1ccc(Cl)c(C(F)(F)F)c1)c1ccccc1[N+](=O)[O-]
melting point: 165 to 169 °C

molecule: NC(=O)c1nc(-c2cccc(O)c2)nc2c1[nH]c(=O)n2-c1c(F)cccc1F
melting point: 355 to 358 °C

molecule: C[C@H]([C@](O)(Cn1cncn1)c1ccc(F)cc1F)S(=O)(=O)N1CCN(Cc2nncn2C)CC1
melting point: 210 to 211 °C

molecule: COc1ccc(-c2cc(NC(=O)Nc3ccc(Cl)cc3)on2)cc1
melting point: 165 to 170 °C

molecule: CCC(C)Cc1ccc(OC(=O)c2ccc(O)cc2Cl)cc1 (single isomer, unassigned; (+))
melting point: 142 °C

molecule: OCC(F)(F)c1ccccn1
melting point: 58 to 60 °C

molecule: O=S(=O)(NCC(c1ccccc1)c1ccc(O)cc1)c1ccccc1 (stereo unspecified)
melting point: 120 to 124 °C

molecule: CCc1nnc2c(N(C(C)=O)C(C)=O)nc3ccccc3n12
melting point: 157 to 159 °C

molecule: CC1(NC2=NS(=O)(=O)c3sc(Cl)cc3N2)CCCCC1
melting point: 218 to 219 °C

molecule: CCC(=O)OCC(=O)C1(OC(=O)c2ccccc2)CCC2C3CC(C)C4=CC(=O)C=CC4(C)C3C(O)CC21C (stereo unspecified)
melting point: 241 °C

molecule: CC1(C)OC(C=Cc2cc(Cl)cc(Cl)c2)=CC1=O
melting point: 129 to 131 °C

molecule: CCn1ncc2c1NC(=O)CC2C(F)(F)F (stereo unspecified)
melting point: 129 to 130 °C

molecule: O=C(NCCCCOc1ccc(-n2ccnc2)cc1)c1ccc(Cl)cc1
melting point: 138 to 139 °C

molecule: CN1CCN(C(=O)c2ccccc2)C1=C(Sc1ccccc1)[N+](=O)[O-]
melting point: 175 to 178 °C

molecule: Cc1c(=O)[nH]c(=O)n2ccsc12
melting point: > 230 °C

molecule: CC(=O)NC1Cc2cccc3cccc(c23)C1O (stereo unspecified)
melting point: 205 to 206 °C

molecule: Cc1ccc(C(=O)NCc2ccc(O)c3ncccc23)cc1
melting point: 137 to 139 °C

molecule: CO[C@@H]1CCN2C(=O)N(c3ccc(C#N)c4ccccc34)C(=O)[C@H]12 (relative stereo)
melting point: 185 to 186 °C

molecule: O=C(O)CN1CCN(C(=O)c2cc(C(F)(F)F)cc(C(F)(F)F)c2)[C@H](Cc2c[nH]c3ccccc23)C1
melting point: 152 to 156 °C

----------
compound: CC(C)c1cccc(C(C)C)c1NC(=O)CNC(c1ccccc1)c1ccc([N+](=O)[O-])cc1 (centres undefined)
melting point: 177 to 179 °C
--
compound: COc1ccc(C=O)cc1OCc1nc(-c2ccco2)oc1C
melting point: 125 to 126 °C
--
compound: CC(C)C[C@H](NC(=O)[C@H](Cc1c[nH]cn1)NC(=O)[C@H](Cc1cccc2ccccc12)NC(=O)OCc1ccccc1)[C@@H](O)CC(=O)OCc1ccccc1
melting point: 102 to 109 °C
--
compound: O=C(O)CC1(S)C2CC3CC(C2)CC1C3 (centres undefined)
melting point: 178 to 180 °C
--
compound: CCCC(CCC)NC(=O)c1ccc2oc(OC)nc2c1
melting point: 137 to 138 °C
--
compound: C[C@@H]1C[C@H](C)CN(C(=O)[C@@H]2Cc3cc(Br)ccc3N2c2ncccn2)C1
melting point: 142 to 144 °C
--
compound: Nc1nc2ccccc2c2c1nc(CO)n2CC1(O)CCCCC1
melting point: 244 to 248 °C
--
compound: O=C1N(Cc2ccc(C(F)(F)F)o2)c2ccccc2C12COc1cc3c(cc12)OCO3 (centres undefined)
melting point: 103 to 105 °C
--
compound: COc1ccc(OCc2nc(-c3ccc(F)cc3)c(-c3ccc(S(C)(=O)=O)cc3)s2)cc1
melting point: 160 to 164 °C

----------
molecule: CCc1ccc2nc(C)[nH]c2c1N1CC(CNC(C)=O)OC1=O (stereo not given)
melting point: 217 to 218 °C
--
molecule: COC(=O)C1=CN(c2ccc(O)cc2)C(C2CC=CCC2)CC1=O (stereo not given)
melting point: 155 to 157 °C
--
molecule: O=C(Cn1cnnn1)N(O)CCCP(=O)(O)O
melting point: 157 to 159 °C
--
molecule: O=C1C(c2ccccc2)=C(c2ccccc2)C(=O)N1c1cccc(F)c1
melting point: 157 to 158 °C
--
molecule: CC(C)(C)OC(=O)NCc1cccc(-c2nc(=O)c3ccccc3s2)n1
melting point: 160 to 162 °C
--
molecule: [N-]=[N+]=N[C@H](C(=O)O)C12CC3CC(CC(C3)C1)C2
melting point: 110 to 112 °C
--
molecule: COc1ccc2nccc(C(=O)CC[C@@H]3CCN(CC#Cc4cc(F)cc(F)c4F)C[C@@H]3C(=O)O)c2c1
melting point: 70 °C
--
molecule: Cc1c(C)c2c(c(C)c1N)[C@H](c1ccc(C(C)C)cc1)[C@H](C)O2 (relative stereo)
melting point: 91 to 92 °C
--
molecule: CCn1cc(C(=O)O)c(=O)c2cc([N+](=O)[O-])c(-c3cc(C)nc(C)c3)cc21
melting point: 289 to 291 °C
--
molecule: CCCn1cnc2c1c(=O)n(CCCC(C)(C)O)c(=O)n2C
melting point: 96 to 98 °C
--
molecule: O=c1c2c(CSc3ncnc4[nH]cnc34)cccc2nc(C(F)(F)F)n1-c1ccccc1Cl
melting point: 218 to 219 °C
--
molecule: Fc1ccc(Nc2c3ccccc3nc3ccccc23)cc1
melting point: 184 to 196 °C
--
molecule: N#CCn1nnc(N)n1
melting point: 105 to 106 °C
--
molecule: CC(C)(C)OC(=O)NCC1(CC(=O)O)CCCCC1
melting point: 109 to 111 °C
--
molecule: CCCc1nn(C)c2c(=O)n(CCOc3cccc(OC(C)(CC)C(=O)O)c3)c(C)nc12 (stereo not given)
melting point: 130 to 132 °C
--
molecule: O=c1c2ccc(Cl)cc2oc2c(OCc3ccccc3)cccc12
melting point: 154 °C
--
molecule: CSc1nc2ccnn2c(OCc2ccccc2)c1C#N
melting point: 194 °C
--
molecule: CCCCCCCC(=O)CCCCCC(=O)N[C@@H](C)C(=O)N[C@H](CCC(=O)OCc1ccccc1)C(N)=O
melting point: 137 to 141 °C
--
molecule: COc1cc2c(cc1OC)-c1nccc3cccc(c13)C2=O
melting point: 250 °C
--
molecule: COc1ccc2c3ccc(OC)cc3n(CCNC(=O)CS(C)(=O)=O)c2c1
melting point: 175 to 177 °C
--
molecule: COC(=O)C1=NC2=COc3cc(C)ccc3N2C1C(=O)O (stereo not given)
melting point: 176 to 177 °C
--
molecule: S=c1nc2c(Cl)cccn2c(=S)n1-c1ncccc1Cl
melting point: 120 to 122 °C
--
molecule: CCNC(=O)Nc1nc2cc(-c3cccnc3)ccn2n1
melting point: 230 to 233 °C
--
molecule: O=C(O)CCCOc1cccc(CNC(=O)c2nc3ccccc3c(=O)[nH]2)c1
melting point: 259 to 260 °C
--
molecule: Cc1cc(CCC2(C)NC(=O)NC2=O)cc(C(C)(C)C)c1O (stereo not given)
melting point: 210 to 211 °C
--
molecule: COc1cc(-c2ccc(O)c(C3(C)CCCCC3)c2)cc(CC2SC(N3CCCC3)=NC2=O)c1OC (stereo not given)
melting point: 227 to 230 °C
--
molecule: COc1ccc(C)cc1NC(=O)Nc1ccc(N2CCN(C(=O)OC(C)(C)C)CC2)cc1C
melting point: 169 to 171 °C
--
molecule: CCOC(=O)c1c2n(c3ccc(Cl)c(Cl)c3c1=O)CCS2
melting point: 266 to 267 °C
--
molecule: COC(=O)[C@H]1CN(c2ccc3c(c2)sc(=O)n3C(C)C)C(=O)O1
melting point: 161 to 162 °C
--
molecule: Clc1ccc(Nc2nnc(Cc3ccncc3)c3cnccc23)cc1
melting point: 227 to 228 °C
--
molecule: O=c1cc(CO)nc2ccn(-c3ccccc3)n12
melting point: 241 to 242 °C
--
molecule: O=C(O)CCc1cn(Cc2ccc(OCc3csc(-c4ccncc4)n3)cc2)cc1-c1ccccc1
melting point: 149 to 150 °C
--
molecule: Oc1ccc(-c2nc3cc(O)cc(Br)c3o2)c(F)c1
melting point: 248 to 250 °C
--
molecule: COc1ccc(S(=O)(=O)c2cc3c(cc2OC)OC(C)(C)[C@@H](O)[C@@H]3N2CCCC2=O)cc1 (relative stereo)
melting point: 286 to 287 °C
--
molecule: CC(=O)C1CC=C2C(CCC3=Cc4c(cnn4-c4ccc(F)cc4)CC32C)C1C(C)=O (stereo not given)
melting point: 157 to 159 °C
--
molecule: O=C(O)COc1cccc2c1CC(SCc1ccccc1)c1sc(-c3ccc4ccccc4c3)nc1-2 (stereo not given)
melting point: 118 to 121 °C
--
molecule: COc1ccc(C2NCCS2)cc1OC (stereo not given)
melting point: 54 to 56 °C
--
molecule: CC(CC(C)(C)C)CP(=O)(O)C1OC(=O)c2ccccc21 (stereo not given)
melting point: 117 to 121 °C
--
molecule: COC(=O)c1nc(Br)c(F)c(N)c1Cl
melting point: 119 to 120 °C
--
molecule: Nc1cc(-c2nc(-c3ccco3)no2)ccc1Cl
melting point: 203 to 204 °C

Where do the numbers come from? From a melting point compilation (Tetko et al.; mined from patent text by program, amines drawn as free bases though some values may be those of a salt).
